# assay.info: recombinant UMI read abundance after kanamycin selection (control-corrected) (log10(CPM+1)); higher = more efficient recombination; extreme values may be limits of the assay; sequences stand for … in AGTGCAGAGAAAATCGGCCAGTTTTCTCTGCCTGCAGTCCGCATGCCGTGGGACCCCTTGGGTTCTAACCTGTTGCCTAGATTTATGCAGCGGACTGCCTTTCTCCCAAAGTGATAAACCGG…AGGTTGGTTTCACT; site = the 11-nt donor;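 note: IS621 bridge recombinase in Escherichia coli cells against a fixed T5 target plasmid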
The sequences listed here are annotated with their recombinant UMI read abundance (log10).

Answered examples (5):
construct.sequence: GGGACGACATGGACCGGTTTTCCCGGTAATCCGTATTTGCA (site AGGAAGACTTG)
recombinant UMI read abundance (log10): 0
--
construct.sequence: TAGGAACCATGGACCGGTTTTCCCGGTAATCCGTATTTGCG (site TAGGAATCTCG)
recombinant UMI read abundance (log10): 0.681
--
construct.sequence: CCCTGCTCATGGACCGGTTTTCCCGGTAATCCGTATTTGGG (site CCCTACTCTCC)
recombinant UMI read abundance (log10): 0.174
--
construct.sequence: CCTAAAGCATGGACCGGTTTTCCCGGTAATCCGTATTTGAT (site CCTAAAGCTAC)
recombinant UMI read abundance (log10): 0
--
construct.sequence: CCGTTAGCATGGACCGGTTTTCCCGGTAATCCGTATTTGTA (site CCGTTAGCTTA)
recombinant UMI read abundance (log10): 0.601

Please give the measured recombinant UMI read abundance (log10) for this sequence: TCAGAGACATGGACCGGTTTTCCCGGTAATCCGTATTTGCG (site TCAGAGACTCA)
0.943

What do you get for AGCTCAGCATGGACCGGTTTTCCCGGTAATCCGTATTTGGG (site AGTTCAGCTCC) ?
0.0207

What do you get for GAGCTTACATGGACCGGTTTTCCCGGTAATCCGTATTTGAT (site GAGCTGACTAT) ?
0.0138

What do you get for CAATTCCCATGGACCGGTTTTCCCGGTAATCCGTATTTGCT (site CAATTCCCTCG) ?
0.178

====

# assay.info: recombinant UMI read abundance after kanamycin selection (control-corrected) (log10(CPM+1)); higher = more efficient recombination; extreme values may be limits of the assay; sequences stand for … in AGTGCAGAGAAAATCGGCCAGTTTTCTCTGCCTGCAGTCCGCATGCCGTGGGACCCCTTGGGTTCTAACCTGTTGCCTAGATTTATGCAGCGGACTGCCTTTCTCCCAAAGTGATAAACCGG…AGGTTGGTTTCACT; site = the 11-nt donor
outcome.measure: recombinant UMI read abundance (log10)
Please state the value as a number alone, without comment.

construct.sequence: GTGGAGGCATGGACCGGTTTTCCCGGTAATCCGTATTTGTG (site GTGGAGGCTCG)
recombinant UMI read abundance (log10): 1.53

Please give the measured recombinant UMI read abundance (log10) for this sequence: CCCGATCCATGGACCGGTTTTCCCGGTAATCCGTATTTGCA (site CCCGGTCCTTG)
0

What do you get for CAGAGTCCATGGACCGGTTTTCCCGGTAATCCGTATTTGCC (site CAGAGTCCTGG) ?
1.8

What do you get for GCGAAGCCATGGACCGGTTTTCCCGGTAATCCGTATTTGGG (site GCGAAGCCTCG) ?
0

What do you get for GCCCACCCATGGACCGGTTTTCCCGGTAATCCGTATTTGAA (site GCCCACCCTTT) ?
0.362
